Biological target: human enzyme NAMPT (full length) (Homo sapiens)
Construct: human enzyme NAMPT (full length)
Test: NMN fluorescence biochemical assay (stimulation of NMN synthesis by NAMPT)
Details: fold change of maximal activation compared to DMSO
Assay endpoint: Enzymatic Emax

| Compound | Enzymatic Emax |
| --- | --- |
| Cc1ccc2c(c1)C(=O)N(Cc1ccc(O)cc1)C2=O | B (3≥B>2) |
| O=C1c2ccccc2C(Cc2ncccc2Br)N1Cc1ccn2cnnc2c1 (centres unmarked) | B (3≥B>2) |
| O=c1c2ccccc2ccn1Cc1ccc(O)cc1 [Compound 1, 2-(4-hydroxybenzyl)isoquinolin-1(2H)-one] | A (A>3) |
| Cn1c(CC2c3ccccc3C(=O)N2CC2CC3(CNC(=O)O3)C2)cccc1=O (centres unmarked) | C (2≥C) |
| Cn1ccc(Cl)c(CC2c3ccccc3C(=O)N2CC2CC3(CNC(=O)O3)C2)c1=O (centres unmarked) | B (3≥B>2) |

-- ask Fill in Enzymatic Emax for record CC1NC(=O)OC12CC(CN1C(=O)c3ccccc3C1Cc1ncccc1Br)C2 (centres unmarked)
-- reply C (2≥C)

-- ask Entry Cn1nc(Cl)c(CC2c3ccccc3C(=O)N2Cc2ccc3[nH]nnc3c2)n1 (centres unmarked) needs its Enzymatic Emax filled in; supply it.
-- reply A (A>3)

-- ask Give the reported Enzymatic Emax for this compound. CC1c2cc(NC3CC4(CNC4)C3)ccc2C(=O)N1Cc1ccc2[nH]c(=O)oc2c1 (centres unmarked)
-- reply A (A>3)

* * *

Exercise: state measured pEC50 for each of the compounds provided.
Target: human enzyme NAMPT (full length) (Homo sapiens, UniProt P43490)
Construct: human enzyme NAMPT (full length)
Sequence (P43490 whole entry): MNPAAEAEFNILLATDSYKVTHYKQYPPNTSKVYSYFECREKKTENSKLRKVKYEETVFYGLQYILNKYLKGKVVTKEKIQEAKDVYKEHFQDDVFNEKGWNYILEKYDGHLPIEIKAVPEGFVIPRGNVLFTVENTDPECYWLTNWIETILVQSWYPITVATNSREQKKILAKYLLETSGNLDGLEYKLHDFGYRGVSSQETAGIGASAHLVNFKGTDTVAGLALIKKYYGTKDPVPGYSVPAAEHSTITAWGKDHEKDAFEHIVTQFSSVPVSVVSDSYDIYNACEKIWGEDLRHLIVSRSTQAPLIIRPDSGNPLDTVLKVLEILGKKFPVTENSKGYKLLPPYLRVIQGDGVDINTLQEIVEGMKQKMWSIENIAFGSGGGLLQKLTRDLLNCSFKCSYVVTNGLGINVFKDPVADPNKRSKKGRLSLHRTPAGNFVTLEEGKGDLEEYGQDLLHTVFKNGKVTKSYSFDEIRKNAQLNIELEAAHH
Assay: NMN fluorescence biochemical assay (stimulation of NMN synthesis by NAMPT)
Details: NMN fluorescence assay, purified human NAMPT 100 nM; concentration giving half-maximal activation; read-out: Enzymatic EC50
pEC50: −log10 of the molar value.

-- ask Return value of pEC50 for input Cn1ncc(Cl)c1CC1c2cc(C3CNC3)ccc2C(=O)N1Cc1ccc2[nH]nnc2c1 (stereo not drawn) [Compound 383] , no commentary.
-- reply > 6.30

-- ask For the compound Cc1cccc2c1C(=O)N(CC1CC3(CNC(=O)O3)C1)C2Cc1c(Cl)cnn1C (stereo not drawn) [Compound 460] , give its measured pEC50 value.
-- reply > 6.30

-- ask Query pEC50 for Cn1nc(Cl)c(Cl)c1CC1c2ccccc2C(=O)N1C[C@H]1C[C@@]2(CNC(=O)O2)C1 (stereo partly drawn) [Compound 499]
-- reply > 6.30

-- ask Return value of pEC50 for input Cn1ncc(Cl)c1CC1c2ccccc2C(=O)N1C[C@]1(F)C[C@@]2(CNC(=O)O2)C1 (stereo partly drawn) [Compound 487] , no commentary.
-- reply 5.30 to 6.30

-- ask Report pEC50, nothing else, for this compound: Cn1ncc(Cl)c1C[C@H]1c2ccccc2C(=O)N1C[C@H]1C[C@]2(CNC(=O)O2)C1 [Compound 406]
-- reply > 6.30

-- ask Supply reported pEC50 belonging to this compound: Cn1ncc(Cl)c1CC1c2cc(CN3CC4(COC4)C3)ccc2C(=O)N1CC1CC2(CNC(=O)O2)C1 (stereo not drawn) [Compound 512]
-- reply 5.30 to 6.30

-- ask // fetch pEC50 given entry Cn1ncc(Cl)c1CC1c2scnc2C(=O)N1Cc1ccc(O)cc1 (stereo not drawn) [Compound 430]
-- reply > 6.30

-- ask Give me measured pEC50, please, for this compound: Cn1ccc(Cl)c(CC2c3ccccc3C(=O)N2CC2CC3(CNC(=O)O3)C2)c1=O (stereo not drawn) [Compound 480]
-- reply > 6.30

-- ask Retrieve pEC50 measured for Cn1ncc(Cl)c1CC1c2cc(C3CN(C(=O)OC(C)(C)C)C3)ccc2C(=O)N1CC1CC2(CNC(=O)O2)C1 (stereo not drawn) [Compound 514] and print it.
-- reply 5.30 to 6.30

-- ask State its pEC50 for this compound: Cn1ncc(Cl)c1CC1(C)c2cc(Br)ccc2C(=O)N1Cc1ccc2[nH]c(=O)oc2c1 (stereo not drawn) [Compound 419]
-- reply > 6.30

-- ask Specify reported pEC50 for the compound shown: O=C1c2ccccc2C(Cc2ncccc2Br)N1Cc1ccc(O)cc1 (stereo not drawn) [Compound 429]
-- reply > 6.30

-- ask Return pEC50 (reported value) for this compound: Cn1ncc(Cl)c1CC1c2ccccc2C(=O)N1Cc1ccc(Cl)cc1 (stereo not drawn) [Compound 573]
-- reply ≤ 5.30

-- ask Quick one: give measured pEC50 for O=C1c2ccccc2C(Cc2n[nH]cc2Cl)N1Cc1ccc2[nH]nnc2c1 (stereo not drawn) [Compound 388]
-- reply > 6.30

-- ask Please give measured pEC50 of the following entry: Cn1ncc(Cl)c1CC1c2c(F)cccc2C(=O)N1Cc1ccc2[nH]nnc2c1 (stereo not drawn) [Compound 338]
-- reply > 6.30

-- ask Annotate the compound CC(C)(O)Cn1cc(Cl)c(CC2c3ccccc3C(=O)N2Cc2ccc3[nH]nnc3c2)n1 (stereo not drawn) [Compound 411] with its measured pEC50.
-- reply > 6.30

-- ask Provide one value: measured pEC50 of O=C1c2ccccc2C(Cc2ncccc2Br)N1C/C=C/c1cn[nH]c1 (stereo not drawn) [Compound 423]
-- reply > 6.30

-- ask Fill in reported pEC50 for this entry: Cc1cncc(C#N)c1CC1c2ccccc2C(=O)N1CC1CC2(CNC(=O)O2)C1 (stereo not drawn) [Compound 492]
-- reply > 6.30

-- ask Report pEC50, nothing else, for this compound: COc1ccc(CN2C(=O)c3ccc(Br)cc3C2Cc2c(Cl)cnn2C)cn1 (stereo not drawn) [Compound 622]
-- reply ≤ 5.30

-- ask Indicate the recorded pEC50 value for this compound: COc1ncc(CN2C(=O)c3ccccc3C2Cc2c(Cl)cnn2C)cc1F (stereo not drawn) [Compound 532]
-- reply ≤ 5.30

-- ask Please report the measured pEC50 for Cn1ncc(Cl)c1CC1c2ccccc2C(=O)N1CCc1ccc(=O)[nH]c1 (stereo not drawn) [Compound 636]
-- reply ≤ 5.30

-- ask Identify the reported pEC50 for the following entry. [2H]C([2H])(C1CC2(CNC(=O)O2)C1)N1C(=O)c2ccccc2C1Cc1c(Cl)cnn1C (stereo not drawn) [Compound 643]
-- reply 5.30 to 6.30

-- ask Retrieve pEC50 measured for Cn1ncc(Cl)c1CC1c2ccccc2C(=O)N1CC#Cc1c[nH]nc1Cl (stereo not drawn) [Compound 477] and print it.
-- reply > 6.30

-- ask Find the measured pEC50 of Cn1ncc(Cl)c1CC1c2ccccc2C(=O)N1CC1CC2(CNC(=S)O2)C1 (stereo not drawn) [Compound 490] and report it.
-- reply 5.30 to 6.30

-- ask Output measured pEC50 for this item: [2H]C([2H])([2H])Oc1ccc(CN2C(=O)c3ccccc3C2Cc2c(C)ccnc2C#N)cc1 (stereo not drawn) [Compound 583]
-- reply 5.30 to 6.30

-- ask Provide measured pEC50 value, entry: CN1CC(c2ccc3c(c2)C(Cc2c(Cl)cnn2C)N(Cc2ccc4[nH]nnc4c2)C3=O)C1 (stereo not drawn) [Compound 385]
-- reply 5.30 to 6.30

-- ask Let me know recorded pEC50 for Cn1ncc(Cl)c1CC1c2ccccc2C(=O)N1CC1CC(C(N)=O)C1 (stereo not drawn) [Compound 562] , thanks.
-- reply 5.30 to 6.30

-- ask Consider the compound Cc1ncnc(C#N)c1CC1c2ccccc2C(=O)N1CC1CC2(CNC(=O)O2)C1 (stereo not drawn) [Compound 491] and give its recorded pEC50.
-- reply 5.30 to 6.30

-- ask Give the reported value of pEC50 for this record: O=C1c2ccccc2C(Cc2ncccc2Br)N1C/C=C/c1n[nH]c(=O)o1 (stereo not drawn) [Compound 458]
-- reply ≤ 5.30

-- ask Query pEC50 for O=C1c2ccccc2C(Cc2ncccc2Br)N1CC1CCc2[nH]c(=O)oc2C1 (stereo not drawn) [Compound 400]
-- reply 5.30 to 6.30

-- ask Indicate the recorded pEC50 value for this compound: Cn1nnc(Cl)c1CC1c2ccccc2C(=O)N1Cc1ccc2[nH]nnc2c1 (stereo not drawn) [Compound 334]
-- reply 5.30 to 6.30

-- ask Look up pEC50 of Cn1ncc(Cl)c1CC1c2ccccc2C(C)(C)N1Cc1ccc2[nH]nnc2c1 (stereo not drawn) [Compound 608] and report it.
-- reply > 6.30

-- ask Provide only the value of recorded pEC50 for O=C1c2ccccc2C(Cc2ncccc2Br)N1CCCc1c[nH]nn1 (stereo not drawn) [Compound 347]
-- reply 5.30 to 6.30

-- ask Hello, please tell me recorded pEC50 for this one: Cn1ncc(Cl)c1CC1c2ccc(Cl)cc2C(=O)N1Cc1ccc2[nH]nnc2c1 (stereo not drawn) [Compound 343]
-- reply > 6.30
